# test method notes: Solubility of flibanserin in aqueous media
# Type: physicochemical
# details: simulated gastric fluid; in 0.1 N HCl
result type: solubility (µg/mL)
Reply numerically in µg/mL, unit not repeated.

# input Tell me measured solubility for O=c1[nH]c2ccccc2n1CCN1CCN(c2cccc(C(F)(F)F)c2)CC1 please.
# output 6200
